All figures here come from PubChem BioAssay AID1963837.

Listed next: entries and their corresponding viability, T/C.
Tested on: 843126-344-R-J1-PDC complex spheroid viability;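 further: spheroids exposed to drugs for seven days before readout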
Assay: Anticancer human tumor 843126-344-R-J1-PDC patient-derived melanoma cell line growth inhibition [POLQ]
Settings: second compound 10 µM; first compound 1 µM; stronger effect = lower value
Note: unit % is implicit; provide only the numeric part.

CCCS(=O)(=O)Nc1ccc(F)c(C(=O)c2c[nH]c3ncc(-c4ccc(Cl)cc4)cc23)c1F + Nc1ccc(C#CCN(C(=O)Cc2ncc(C(F)(F)F)cc2C(F)(F)F)c2ccc(F)cc2)nn1 ... 82.3
CNCc1ccc(-c2[nH]c3cc(F)cc4c3c2CCNC4=O)cc1 + COC1C(OC(N)=O)C(O)C(Oc2ccc3c(O)c(NC(=O)c4ccc(O)c(CC=C(C)C)c4)c(=O)oc3c2C)OC1(C)C ... 100
COc1cccc(OCCCN)c1-c1cc(Nc2cnc(C#N)cn2)n[nH]1 + COC1C(OC(N)=O)C(O)C(Oc2ccc3c(O)c(NC(=O)c4ccc(O)c(CC=C(C)C)c4)c(=O)oc3c2C)OC1(C)C ... 37.2

Could you now look at the following compound, please?
Simply: C=CCn1c(=O)c2cnc(Nc3ccc(N4CCN(C)CC4)cc3)nc2n1-c1cccc(C(C)(C)O)n1 + Nc1ccc(C#CCN(C(=O)Cc2ncc(C(F)(F)F)cc2C(F)(F)F)c2ccc(F)cc2)nn1 , 843126-344-R-J1-PDC complex spheroid viability, viability, T/C = 74.5
